The following compounds are shown together with reported melting point values.

COc1cn(-c2cc(-n3cccn3)ccc2F)nc(-c2ccnn2-c2ccccc2)c1=O	186 to 187 °C
O=C(c1ccccc1)c1ccc(OCC(O)COCCCCCCCCOCC(O)COc2ccc(C(=O)c3ccccc3)c(O)c2)cc1O (centres undefined)	74 °C
COC(=O)CCC(NC(c1ccccc1)c1ccccc1)P(O)O (centres undefined)	162 to 164 °C
CCc1nn(-c2ccc3cc(N=CN(C)C)c(=O)oc3c2)nc1C	158 to 159 °C
O=C(Cc1cccc2ccccc12)N1CC=C(c2cccc(C(F)(F)F)c2)CC1	137 to 140 °C

Please fill in: melting point reported for COC(=O)C1=C(C)NN=C(c2cccc(Cl)c2)C1c1ccccc1 (centres undefined) = 176 °C

Please fill in: melting point reported for `CCCC[Si](C)(C)CCCSCCCNC(=O)n1cc(F)c(=O)[nH]c1=O` = 71 to 72 °C

Please fill in: melting point reported for CCOC(=O)C(OC(=O)c1ccc(O)cc1)C(F)(F)F (centres undefined) = 83.8 °C

Please fill in: melting point reported for `Cc1nnc(Sc2ncnc3c(C)csc23)s1` = 144 to 147 °C

====

The following compounds are shown together with reported melting point values.

COc1cc(O)c2c(c1)CCC1C2CCC2(C)C(=O)CCC12 (stereo not drawn)	220 to 222 °C

Here's the next entry for you.
Please fill in: melting point reported for `Clc1cccc(Cl)c1N=C1NCCN1OCc1ccccc1` = 115 to 117 °C

====

OUTCOME MEASURE: melting point

Field: example entries. Status: answers known.
CSc1nnc2c3cnn(C)c3ncn12	204 to 206 °C
CC1CCC(C(C)C)C(OC(=O)N2CC3CC(C2)CN(C(=O)C2(O)NCCC2Oc2ccc(C#N)cc2)C3)C1 (single isomer, unassigned; (-))	111 to 112 °C
CN(C)C=Nc1[nH]nc(-c2cccc([N+](=O)[O-])c2)c1C#N	221 to 225 °C
COCOc1ccccc1-c1cc(-c2ccc(OC)c(C(=O)OC)c2)c(C#N)c(NC(=O)c2cccs2)n1	105 to 106 °C
Cn1cnnc1SCCCCCN1CCN(c2cccc(C(F)(F)F)c2)CC1	70 to 76 °C

Please fill in: melting point reported for `CCOC(=O)[C@H](Cc1ccc(OS(=O)(=O)C(F)(F)F)cc1)NC(=O)OC(C)(C)C` = 47 to 49 °C

Please fill in: melting point reported for `CCCCc1ncc(C=CC(=O)O)n1Cc1ccccc1Cl` = 178 to 179 °C

====

OUTCOME MEASURE: melting point

Field: example entries. Status: answers known.
O=S(=O)(Nc1ccc(Oc2ccc3cccnc3c2)cc1)c1ccc(F)cc1	175 to 178 °C
Nc1ccnc(CSCCN2C(=O)c3ccccc3C2=O)n1	131 to 133 °C
COc1cc(C(CCC(C(=O)O)c2cc(OC)c(OC)c(OC)c2)C(=O)O)cc(OC)c1OC (stereo unspecified)	226 to 233 °C
COc1ccc(CCCC2CCNCC2)cc1	65 to 70 °C
COc1ccc(NCC(C)C#N)c([N+](=O)[O-])c1 (stereo unspecified)	114 to 115 °C

Please fill in: melting point reported for `CNN(NC)C(=O)Nc1cccc2c1C(=O)c1c-2n[nH]c1-c1ccsc1` = 202 °C

Please fill in: melting point reported for CCC1(CC(=O)OC2OC(=O)c3ccccc32)OCCc2c1[nH]c1cc(OC(F)(F)F)ccc21 (stereo unspecified) = 150 °C

Source of measurements: a melting point compilation (Tetko et al.; mined from patent text by program, amines drawn as free bases though some values may be those of a salt)
